molecular target: Delta-type opioid receptor (Homo sapiens, UniProt P41143); assay: Binding affinity at human opioid receptor delta 1 was determined by using [3H]diprenorphine radioligand in CHO cell membranes at a concentration of 0.8 nM
Sequence (P41143 whole entry): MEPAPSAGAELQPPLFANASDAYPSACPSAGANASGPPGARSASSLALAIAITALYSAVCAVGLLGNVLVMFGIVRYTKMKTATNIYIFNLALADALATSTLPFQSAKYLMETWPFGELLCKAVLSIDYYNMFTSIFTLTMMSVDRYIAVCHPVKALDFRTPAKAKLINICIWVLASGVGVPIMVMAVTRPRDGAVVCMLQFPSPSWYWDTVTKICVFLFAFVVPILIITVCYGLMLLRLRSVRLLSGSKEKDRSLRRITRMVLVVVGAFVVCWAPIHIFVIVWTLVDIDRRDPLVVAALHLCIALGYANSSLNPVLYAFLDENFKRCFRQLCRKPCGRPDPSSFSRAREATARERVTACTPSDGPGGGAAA
PROPERTY: Ki (µM)

1. CCCCC(c1cccc(F)c1)N1CC[C@H]1[C@@H](N)c1cccc(Cl)c1 (some centres undefined)
2. CCC(c1ccccc1)N1CC[C@H]1[C@H](N)c1cccc(Cl)c1 (some centres undefined)
Task: Form: Entry with minimum Ki (choose one): 1 / 2 Refer to your chosen item by its label in the answer.
Result: 1
(1: 12.3 µM, 2: 22.4 µM)

a. N[C@@H](c1cccc(C(F)(F)F)c1)[C@@H]1CCN1C(c1ccccc1)c1ccccc1 (stereo in doubt; (+\-)-1)
b. CCCCC(CCCC)N1CC[C@H]1[C@@H](N)c1cccc(Cl)c1
Task: When their Ki values are compared, which is larger, a or b ? Refer to your chosen item by its label in the answer.
Result: b

1. N[C@H](c1cccc(Cl)c1)[C@@H]1CCN1C(c1ccc(Cl)cc1)c1ccc(Cl)cc1
2. CCCC(c1ccccc1)N1CC[C@H]1[C@H](N)c1cccc(Cl)c1 (some centres undefined)
3. N[C@@H](c1cc(F)cc(F)c1)[C@@H]1CCN1C(c1ccccc1)c1ccccc1
Task: # rank_down: sort by Ki, max first Rank the items, then write their labels in that order.
Result: 2, 3, 1

====

biological target: Delta-type opioid receptor (Homo sapiens, UniProt P41143); assay: Binding affinity at human Opioid receptor delta 1 was determined by using [3H]diprenorphine radioligand in CHO cell membranes at a concentration of 0.8 nM
PROPERTY: pKi
API: returns pKi as number; meaning -log10 of concentration in mol/L.

Task: Quick one: pKi for CCCCCCC(c1ccccc1)N1CC[C@H]1[C@H](N)c1cccc(Cl)c1 (stereo partly specified) ?
Result: 5.41

====

molecular target: Delta-type opioid receptor (Homo sapiens); experiment: Binding affinity at human opioid receptor delta 1 was determined by using [3H]diprenorphine radioligand in CHO cell membranes at a concentration of 0.8 nM
pKi: −log10 of the molar value.
PROPERTY: pKi

N[C@@H](c1cccc(F)c1)[C@@H]1CCN1C(c1ccccc1)c1ccccc1
5.53
CC(c1ccccc1)N1CC[C@H]1[C@@H](N)c1cccc(Cl)c1 (some centres undefined)
4.41

A. N[C@H](c1cccc(Cl)c1)[C@@H]1CCN1C(c1cccc(Cl)c1)c1cccc(Cl)c1
B. CCCCC(c1ccccc1)N1CC[C@H]1[C@@H](N)c1cccc(Cl)c1 (some centres undefined)
Task: When their pKi values are compared, which is larger, A or B ? Refer to your chosen item by its label in the answer.
Result: A
(A: 5.57, B: 5.05)

a. CCCC(c1ccccc1)N1CC[C@H]1[C@@H](N)c1cccc(Cl)c1 (some centres undefined)
b. N[C@@H](c1ccc(Cl)cc1)[C@@H]1CCN1C(c1ccccc1)c1ccccc1
Task: When their pKi values are compared, which is larger, a or b ? Refer to your chosen item by its label in the answer.
Result: b

1. N[C@@H](c1cccc(C(F)(F)F)c1)[C@@H]1CCN1C(c1ccccc1)c1ccccc1 (stereo in doubt; (+)-1a)
2. N[C@H](c1cccc(C(F)(F)F)c1)[C@H]1CCN1C(c1ccccc1)c1ccccc1
Task: Form: Entry with minimum pKi (choose one): 1 / 2 Refer to your chosen item by its label in the answer.
Result: 1

P. CCCCC(c1cc(F)cc(F)c1)N1CC[C@H]1[C@H](N)c1cccc(Cl)c1 (some centres undefined)
Q. CCC(c1ccccc1)N1CC[C@H]1[C@@H](N)c1cccc(Cl)c1 (some centres undefined)
R. COc1ccc([C@H](N)[C@@H]2CCN2C(c2ccccc2)c2ccccc2)cc1
S. Cc1ccc([C@H](N)[C@@H]2CCN2C(c2ccccc2)c2ccccc2)cc1F
Task: Exam item: list the entries in increasing order of pKi. Rank the items, then write their labels in that order.
Result: Q, P, R, S

1. CCCCCC(c1ccccc1)N1CC[C@H]1[C@@H](N)c1cccc(Cl)c1 (some centres undefined)
2. Cc1ccc([C@H](N)[C@@H]2CCN2C(c2ccccc2)c2ccccc2)cc1
Task: Form: Entry with minimum pKi (choose one): 1 / 2 Refer to your chosen item by its label in the answer.
Result: 1
(1: 5.12, 2: 5.73)
